# condition.label: pH 2.7
Marks after values point to notes of the source that are not given here.
assay.endpoint: LogP

Below are worked cases with known answers.
COCC(C)NC(=C(C#N)C(=O)CC1CC1)c1cn(C)nc1C(F)F (stereo not drawn) = 2.54^[a]
CCCC(=O)C(C#N)=C(NC(C)C(C)C)c1ccc(Cl)nc1Cl (stereo not drawn) = 4.31^[a]
CCCC(=O)C(C#N)=C(NC(C)C1CC1)c1cn(C)nc1C(F)F (stereo not drawn) = 3.08^[a]
CCCC(=O)C(C#N)=C(NC(C)C1(Cl)CC1)c1cccnc1Cl (stereo not drawn) = 3.44^[a]
CC(C)C(C)NC(=C(C#N)C(=O)C1CCOC1)c1cccnc1Cl (stereo not drawn) = 2.70^[a]
CC(NC(=C(C#N)C(=O)CC1CC1)c1cn(C)nc1C(F)F)C1CC1 (stereo not drawn) = 3.04^[a]
CCCC(=O)C(C#N)=C(NC(C)C(C)C)c1cccnc1Cl (stereo not drawn) = 3.69^[a]
CCCC(=O)C(C#N)=C(NC(C)COC)c1ccnn1C(F)F (stereo not drawn) = 2.73^[a]

Problem: // LogP lookup, key: CC(C)C(C)NC(=C(C#N)C(=O)CC1CC1)c1cn(C)nc1C(F)F (stereo not drawn)
Solution: 3.27^[a]

---

Attribute: LogP
# condition.label: method [a]: LC-MS at pH 2.7, 0.1% formic acid in water / acetonitrile, linear gradient 10% to 95% acetonitrile

Below are worked cases with known answers.
CC(C)C(C)NC(=C(C#N)C(=O)Cc1ccccc1)c1cccnc1Cl (stereo not drawn) = 3.85^[a]
CCCC(=O)C(C#N)=C(NC(C)c1ccco1)c1cccnc1Cl (racemic) = 3.31^[a]
CCCC(=O)C(C#N)=C(NC1CCC1)c1cccnc1Cl = 3.13^[a]
CCCC(=O)C(C#N)=C(NC(C)CCc1ccccc1)c1cn(C)nc1C(F)F (racemic) = 3.83^[a]
CC#CC(C)NC(=C(C#N)C(=O)CCC)c1cccnc1Cl (racemic) = 3.09^[a]

Proceed to the following item.
Problem: // LogP lookup, key: CCCC(=NOC)C(C#N)=C(NC(C)C(C)C)c1cn(C)nc1C(F)F (stereo not drawn)
Solution: 4.24^[a]

---

# condition.label: pH 2.7
Marks after values point to notes of the source that are not given here.
assay.endpoint: LogP

Below are worked cases with known answers.
CCC(=O)C(C#N)=C(NC(C)C(C)C)c1cccnc1Cl (stereo not drawn) = 3.11^[a]
CCCC(=O)C(C#N)=C(NC(C)c1ccsn1)c1cn(C)nc1C(F)F (stereo not drawn) = 2.73^[a]
CCCC(=O)C(C#N)=C(NC(C)C(C)C)c1cn(C)nc1C(F)F (stereo not drawn) = 3.29^[a]
CCCC(=O)C(C#N)=C(NC(C)C(C)(C)C)c1cn(C)nc1C(F)F (stereo not drawn) = 3.55^[a]
CCCC(=O)C(C#N)=C(NC(C)COC)c1cn(C)nc1C(F)F (stereo not drawn) = 2.54^[a]
CC(NC(=C(C#N)C(=O)CC1CC1)c1cccnc1Cl)C1(Cl)CC1 (racemic) = 3.39^[a]
CC(NC(=C(C#N)C(=O)CC1CC1)c1cn(C)nc1C(F)F)c1nccs1 (stereo not drawn) = 2.59^[a]
CC=CC(=O)C(C#N)=C(NC(C)C(C)C)c1cccnc1Cl (stereo not drawn) = 3.35^[a]

Proceed to the following item.
Problem: // LogP lookup, key: COCC(=O)C(C#N)=C(NC(C)C(C)C)c1cn(C)nc1C(F)F (stereo not drawn)
Solution: 2.42^[a]

Attribution: patent US9474275B2
